Measured values drawn from PubChem BioAssay AID602164 for this set.

system: 2B4/Mcl-1 cells apoptosis, absorbance viability; experiment: Mcl-1-selective cell killing, 2B4 lines – absorbance, 2B4/Mcl1 vs 2B4/Bcl-2, selectivity assay for MCL1-BIM inhibitor project, late-stage follow-up (AID 602164)
property.name: pIC50
Scale note: pIC50 = -log10(concentration in M).

Known results for compounds:
compound | pIC50
Oc1c(C(Nc2ccccn2)c2cccs2)ccc2cccnc12 (stereo not drawn) | 5.51
CC(C)Oc1ccc(C(Nc2ccccn2)c2ccc3cccnc3c2O)cc1 (stereo not drawn) | 5.64
Cc1ccnc(NC(c2cccs2)c2ccc3cccnc3c2O)c1 (stereo not drawn) | 5.62
OCCN1CCN(C(c2cccs2)c2ccc3cccnc3c2O)CC1 (stereo not drawn) | 5.29
CCN1CCN(C(c2cccs2)c2ccc3cccnc3c2O)CC1 (stereo not drawn) | 5.42

response.value for Oc1c(C(c2cccs2)N2CCCCC2)ccc2cccnc12 (stereo not drawn) (field: pIC50) = 5.36

response.value for Oc1c(C(c2cccs2)N2CCN(c3ccccn3)CC2)ccc2cccnc12 (stereo not drawn) (field: pIC50) = 5.43

response.value for CN1CCN(C(c2ccc(F)cc2)c2ccc3cccnc3c2O)CC1 (stereo not drawn) (field: pIC50) = 5.40
